# EXPERIMENTAL_TARGET: SMARCA2-HiBiT (Homo sapiens)
# Construct: SMARCA2-HiBiT knock-in Hela monoclonal cell (CS302366); host or cells: HeLa monoclonal knock-in line (CRISPR HiBiT knock-in at the endogenous locus, heterozygous)
# Sequence (P51531 whole entry): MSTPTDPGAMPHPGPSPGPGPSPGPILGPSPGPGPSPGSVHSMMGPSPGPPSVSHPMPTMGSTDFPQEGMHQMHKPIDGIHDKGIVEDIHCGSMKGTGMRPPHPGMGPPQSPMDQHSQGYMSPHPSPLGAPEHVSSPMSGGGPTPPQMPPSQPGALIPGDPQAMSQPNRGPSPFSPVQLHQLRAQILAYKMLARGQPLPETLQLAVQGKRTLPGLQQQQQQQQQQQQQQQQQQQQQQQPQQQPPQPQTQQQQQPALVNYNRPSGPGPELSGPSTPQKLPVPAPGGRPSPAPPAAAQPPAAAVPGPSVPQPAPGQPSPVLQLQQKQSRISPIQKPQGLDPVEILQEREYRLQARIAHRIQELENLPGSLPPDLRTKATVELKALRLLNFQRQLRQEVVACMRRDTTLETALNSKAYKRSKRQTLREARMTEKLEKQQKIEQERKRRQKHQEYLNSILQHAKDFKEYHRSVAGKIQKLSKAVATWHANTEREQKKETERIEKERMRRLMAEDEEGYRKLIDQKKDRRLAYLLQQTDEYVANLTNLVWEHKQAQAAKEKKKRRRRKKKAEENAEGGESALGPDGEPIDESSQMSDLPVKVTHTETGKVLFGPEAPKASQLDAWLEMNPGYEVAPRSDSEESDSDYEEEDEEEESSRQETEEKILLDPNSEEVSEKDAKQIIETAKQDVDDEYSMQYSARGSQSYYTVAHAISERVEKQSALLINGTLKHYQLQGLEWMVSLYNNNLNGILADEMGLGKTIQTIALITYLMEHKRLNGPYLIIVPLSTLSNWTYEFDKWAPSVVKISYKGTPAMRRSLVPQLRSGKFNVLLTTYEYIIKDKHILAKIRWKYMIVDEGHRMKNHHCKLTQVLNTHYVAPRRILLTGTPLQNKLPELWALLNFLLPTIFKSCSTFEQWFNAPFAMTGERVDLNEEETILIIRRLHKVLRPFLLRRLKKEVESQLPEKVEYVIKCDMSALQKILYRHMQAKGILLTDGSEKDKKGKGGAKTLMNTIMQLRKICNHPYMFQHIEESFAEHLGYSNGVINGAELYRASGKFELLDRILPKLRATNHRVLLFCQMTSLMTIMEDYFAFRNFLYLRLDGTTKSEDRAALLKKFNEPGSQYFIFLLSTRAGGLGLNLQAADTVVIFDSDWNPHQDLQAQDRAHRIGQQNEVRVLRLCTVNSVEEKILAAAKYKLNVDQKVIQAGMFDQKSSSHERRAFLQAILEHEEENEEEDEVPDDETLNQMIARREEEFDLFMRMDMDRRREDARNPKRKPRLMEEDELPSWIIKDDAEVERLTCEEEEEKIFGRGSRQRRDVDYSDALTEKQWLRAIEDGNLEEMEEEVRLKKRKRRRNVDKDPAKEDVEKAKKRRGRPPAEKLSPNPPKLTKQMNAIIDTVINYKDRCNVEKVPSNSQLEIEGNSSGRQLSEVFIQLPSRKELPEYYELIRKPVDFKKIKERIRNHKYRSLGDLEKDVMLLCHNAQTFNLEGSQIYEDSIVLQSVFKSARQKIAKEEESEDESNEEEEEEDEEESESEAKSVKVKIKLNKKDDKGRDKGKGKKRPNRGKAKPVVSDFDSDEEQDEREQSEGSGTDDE
# ASSAY_TEXT: SMARCA2 HiBiT degradation assay in HeLa cells
# Format: cell-based
# CONDITION_DETAILS: 18 hours incubation, read-out: HeLa_HiBit-SM2 DC50
OBSERVABLE: DC50

Below: 2 molecules and their reported DC50.
INSERT INTO results (molecule, observed_result) VALUES
  ('O=C1CCC(N2C(=O)c3ccc(N4CCC(CN5CCN6c7cc(-c8ccccc8O)nnc7NC[C@H]6C5)CC4)cc3C2=O)C(=O)N1 (stereo partly drawn)', '< 0.01 µM'),
  ('O=C1CCC(N2Cc3ccc(N4CCC(CN5CCC(F)(CN6CCN7c8cc(-c9ccccc9O)nnc8NC[C@H]7C6)CC5)CC4)cc3C2=O)C(=O)N1 (stereo partly drawn)', '< 0.01 µM');

Q: Answer with the recorded DC50 for the molecule listed here: O=C1CCC(N2Cc3ccc(N4CCOC(CN5CCC(C(=O)N6CCN7c8cc(-c9ccccc9O)nnc8NC[C@H]7C6)CC5)C4)cc3C2=O)C(=O)N1 (stereo partly drawn)
A: < 0.01 µM
